Cited source for all entries: DBAASP

- Test system: Pseudomonas aeruginosa ATCC 27853
- Protocol notes: ≥ marks a high value that may be exact or a test limit, other limits are often not marked, values filed in µg/mL are converted to µM
Measured property: MIC

Chemical string	Target entity	Measured property	Endpoint value
CC[C@H](C)[C@H](NC(=O)[C@H](CCCN=C(N)N)NC(=O)[C@H](CCC(N)=O)NC(=O)[C@@H](NC(=O)[C@@H](NC(=O)[C@H](CCCCN)NC(=O)[C@@H](N)CCCCN)[C@@H](C)CC)C(C)C)C(=O)N[C@@H](CCCCN)C(=O)N[C@@H](CC(=O)O)C(=O)N[C@@H](Cc1ccccc1)C(=O)N[C@@H](CC(C)C)C(=O)N[C@@H](CCCN=C(N)N)C(=O)O	Pseudomonas aeruginosa ATCC 27853	MIC	10 µM
CC[C@H](C)[C@H](NC(=O)CN)C(=O)N[C@@H](Cc1cnc[nH]1)C(=O)N[C@@H](Cc1cnc[nH]1)C(=O)N[C@H](C(=O)N[C@@H](CC(C)C)C(=O)N[C@@H](CCCCN)C(=O)N[C@@H](Cc1ccc(O)cc1)C(=O)NCC(=O)N[C@@H](CCCCN)C(=O)N1CCC[C@H]1C(=O)N[C@@H](CO)C(=O)O)[C@@H](C)CC	Pseudomonas aeruginosa ATCC 27853	MIC	> 32 µM
CC[C@H](C)[C@H](NC(=O)CNC(=O)[C@@H]1CCCN1C(=O)[C@H](CC(C)C)NC(=O)[C@@H](N)Cc1ccccc1)C(=O)N[C@@H](CC(C)C)C(=O)N[C@@H](CCCCN)C(=O)N[C@H](C(=O)N[C@@H](C)C(=O)N[C@@H](C)C(=O)N[C@@H](CCCCN)C(N)=O)C(C)C	Pseudomonas aeruginosa ATCC 27853	MIC	> 512 µM

Form field MIC, entry `CC(C)C[C@H](NC(=O)CNC(=O)[C@H](CCCN=C(N)N)NC(=O)[C@H](CS)NC(=O)[C@H](CC(=O)O)NC(=O)CNC(=O)CNC(=O)[C@H](CO)NC(=O)[C@@H](N)Cc1ccccc1)C(=O)N[C@@H](CCCN=C(N)N)C(=O)N[C@@H](CCCN=C(N)N)C(=O)N[C@@H](CCCN=C(N)N)C(=O)N[C@@H](CS)C(=O)N[C@@H](Cc1ccccc1)C(=O)N[C@@H](CS)C(=O)N[C@H](C(=O)N[C@@H](CCCN=C(N)N)C(N)=O)[C@@H](C)O` : > 251 µM

Form field MIC, entry `CC(C)[C@@H]1NC(=O)[C@H](CCCN=C(N)N)NC(=O)[C@H](C)NC(=O)[C@@H](NC(=O)[C@H](Cc2c[nH]c3ccccc23)NC(=O)[C@@H](N)CCCCN)CSSC[C@@H](C(=O)N[C@@H](CCCN=C(N)N)C(=O)O)NC(=O)[C@H](CCCN=C(N)N)NC(=O)[C@H](CCCN=C(N)N)NC(=O)[C@H](Cc2ccc(O)cc2)NC(=O)[C@@H]2CSSC[C@H](NC1=O)C(=O)N[C@@H](C)C(=O)N[C@@H](CCCN=C(N)N)C(=O)NCC(=O)N[C@@H](C)C(=O)N2` : > 7.77 µM

Form field MIC, entry `CC[C@H](C)[C@H](NC(=O)[C@H](CCCCN)NC(=O)[C@H](CCCCN)NC(=O)[C@@H](N)CCC(N)=O)C(=O)N[C@@H](CCCN=C(N)N)C(=O)N[C@H](C(=O)N[C@@H](CCCN=C(N)N)C(=O)N[C@@H](C)C(=O)N[C@@H](CO)C(=O)N[C@@H](C)C(=O)O)C(C)C` : > 55.3 µM
